// provenance: ChEMBL document CHEMBL3351928

Would you kindly list pIC50 for each of these compounds?
experimental-system: cAMP and cAMP-inhibited cGMP 3',5'-cyclic phosphodiesterase 10A (Homo sapiens, UniProt Q9Y233)
Sequence (Q9Y233 whole entry): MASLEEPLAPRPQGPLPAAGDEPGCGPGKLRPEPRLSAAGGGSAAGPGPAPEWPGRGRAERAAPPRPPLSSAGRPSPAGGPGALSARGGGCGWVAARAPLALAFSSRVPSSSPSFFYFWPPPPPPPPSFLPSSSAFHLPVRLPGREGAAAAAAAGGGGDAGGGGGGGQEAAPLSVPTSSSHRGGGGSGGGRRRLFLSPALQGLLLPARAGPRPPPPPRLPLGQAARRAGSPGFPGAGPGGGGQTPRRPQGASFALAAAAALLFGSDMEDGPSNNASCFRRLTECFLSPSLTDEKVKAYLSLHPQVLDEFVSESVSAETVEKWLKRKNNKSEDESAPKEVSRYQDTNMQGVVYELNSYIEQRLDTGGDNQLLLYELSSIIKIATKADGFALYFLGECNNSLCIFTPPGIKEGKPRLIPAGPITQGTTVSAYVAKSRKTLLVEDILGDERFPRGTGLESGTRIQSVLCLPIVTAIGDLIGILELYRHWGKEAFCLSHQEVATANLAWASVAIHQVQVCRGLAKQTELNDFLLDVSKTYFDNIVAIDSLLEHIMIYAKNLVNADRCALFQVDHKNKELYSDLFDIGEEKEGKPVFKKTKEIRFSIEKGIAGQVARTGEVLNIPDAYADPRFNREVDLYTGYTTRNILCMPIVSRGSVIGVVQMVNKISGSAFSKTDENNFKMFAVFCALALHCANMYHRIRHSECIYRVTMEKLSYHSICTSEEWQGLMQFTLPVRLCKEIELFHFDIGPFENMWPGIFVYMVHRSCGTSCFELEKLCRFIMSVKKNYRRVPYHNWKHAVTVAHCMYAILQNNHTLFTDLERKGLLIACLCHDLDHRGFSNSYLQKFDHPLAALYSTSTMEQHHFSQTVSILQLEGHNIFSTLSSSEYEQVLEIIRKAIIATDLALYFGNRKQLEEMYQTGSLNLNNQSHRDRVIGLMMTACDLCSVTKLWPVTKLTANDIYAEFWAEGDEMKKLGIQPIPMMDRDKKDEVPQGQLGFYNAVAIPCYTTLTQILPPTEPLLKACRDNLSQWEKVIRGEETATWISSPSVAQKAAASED
test-details: Inhibition of human recombinant PDE10A using cAMP as substrate incubated for 30 mins prior to substrate addition measured after 3 hrs to overnight by IMAP FRET assay
Answers are plain numbers, as −log10 of the molar value.

Worked examples, 2 compounds total:
>>> measured_number("O=C(c1ccc(Oc2nccnc2C2CCOCC2)cc1)c1nc2ccccc2[nH]1")
9.10
>>> measured_number("CC(=O)N1CCC(c2nccnc2Oc2ccc(C(=O)c3nc4ccccc4[nH]3)cc2)CC1")
10.00

Recorded result, `CC(=O)N1CCC(c2cccnc2Oc2ccc(C(=O)c3nc4ccccc4[nH]3)cc2)CC1` , pIC50: 10.00

---

test-details: AUC in non-human primates at 0.5 mg/kg, iv
Assay type: ADME, organism-based
Set-up: dose 0.5 mg/kg, route intravenous
measurement-context: monkey, plasma
Would you kindly list AUC for each of these compounds?
Give bare numbers, in µM·h.

>>> measured_number("CC(=O)N1CCC(c2nccnc2Oc2ccc(C(=O)c3nc4ccccc4[nH]3)cc2)CC1")
3.41

Now look at this one.
Recorded result, `CC(=O)N1CCC(c2cccnc2Oc2ccc(C(=O)c3nc4ccccc4[nH]3)cc2)CC1` , AUC: 1.61

---

test-details: Half life in non-human primates at 0.5 mg/kg, po
Format: ADME, organism-based
Design: dose 0.5 mg/kg, route oral
measurement-context: monkey, in vivo
recorded-metric: half-life (h)
One number for each entry, in h.

Recorded result, `CC(=O)N1CCC(c2nccnc2Oc2ccc(C(=O)c3nc4ccccc4[nH]3)cc2)CC1` , half-life: 2.48

---

test-details: AUC in dog at 0.5 mg/kg, po
Format: ADME, organism-based, Canis lupus familiaris
Parameters: dose 0.5 mg/kg, route oral
measurement-context: plasma
recorded-metric: AUC (µM·h)
One number for each entry, in µM·h.

Recorded result, `CC(=O)N1CCC(c2cccnc2Oc2ccc(C(=O)c3nc4ccccc4[nH]3)cc2)CC1` , AUC: 9.59

---

test-details: Metabolic stability in human liver microsomes assessed as clearance at 1 uM in presence of NADPH at 37 degC incubated for 30 mins
Assay type: ADME
measurement-context: read-out: CLH
Would you kindly list microsomal CLint at 1 µM for each of these compounds?
Answers are plain numbers, in µL/min/mg.

>>> measured_number("O=C(c1ccc(Oc2nccnc2C2CCOCC2)cc1)c1nc2ccccc2[nH]1")
50
>>> measured_number("CC(=O)N1CCC(c2nccnc2Oc2ccc(C(=O)c3nc4ccccc4[nH]3)cc2)CC1")
20
>>> measured_number("O=C(c1ccc(Oc2ncccc2C2CCOCC2)cc1)c1nc2ccccc2[nH]1")
100

Now look at this one.
Recorded result, `CC(=O)N1CCC(c2cccnc2Oc2ccc(C(=O)c3nc4ccccc4[nH]3)cc2)CC1` , microsomal CLint at 1 µM: 29

---

test-details: Volume of distribution at steady state in non-human primates at 0.5 mg/kg, iv
Assay type: ADME, organism-based
Set-up: dose 0.5 mg/kg, route intravenous
measurement-context: monkey, in vivo, read-out: Vdss
recorded-metric: Vd (L/kg)
Give bare numbers, in L/kg.

>>> measured_number("CC(=O)N1CCC(c2nccnc2Oc2ccc(C(=O)c3nc4ccccc4[nH]3)cc2)CC1")
0.83

Now look at this one.
Recorded result, `CC(=O)N1CCC(c2cccnc2Oc2ccc(C(=O)c3nc4ccccc4[nH]3)cc2)CC1` , Vd: 1.62
